- Experimental Target: MMP-9 (Homo sapiens, UniProt P14780)
- Construct: purchased Sino Biological 10327-HNAH
- Sequence (P14780 107-707 limits assumed): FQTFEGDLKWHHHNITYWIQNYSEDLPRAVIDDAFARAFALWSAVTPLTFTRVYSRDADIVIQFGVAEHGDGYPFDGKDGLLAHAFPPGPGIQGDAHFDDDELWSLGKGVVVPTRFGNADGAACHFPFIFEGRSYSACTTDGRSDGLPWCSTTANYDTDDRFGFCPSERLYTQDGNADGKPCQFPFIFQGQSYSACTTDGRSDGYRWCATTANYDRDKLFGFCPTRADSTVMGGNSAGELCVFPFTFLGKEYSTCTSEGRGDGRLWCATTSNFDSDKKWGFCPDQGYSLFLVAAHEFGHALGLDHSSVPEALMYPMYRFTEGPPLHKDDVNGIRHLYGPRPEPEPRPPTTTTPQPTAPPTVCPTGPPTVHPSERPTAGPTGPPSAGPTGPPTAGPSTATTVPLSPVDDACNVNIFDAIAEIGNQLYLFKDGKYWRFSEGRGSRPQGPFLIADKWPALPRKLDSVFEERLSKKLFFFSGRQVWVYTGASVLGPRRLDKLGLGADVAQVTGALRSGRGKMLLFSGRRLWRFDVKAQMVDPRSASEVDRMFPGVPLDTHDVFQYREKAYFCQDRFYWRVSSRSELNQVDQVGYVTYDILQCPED
- Assay Protocol: MMP-9 inhibition assay (fluorogenic peptide substrate)
- Format: biochemical
- Parameters: scale not given here
- Assay Conditions: MMP-9, concentration 1.95 µM
Metric Name: remaining enzyme activity (% of control)
// keep it numeric: no unit symbol after the value

Consider `O=C(Cn1cnc2c(oc3ccccc32)c1=O)NCc1c[nH]nn1` . Its measured remaining enzyme activity (% of control) is 85.78

---

- Experimental Target: MMP-2 (Homo sapiens, UniProt P08253)
- Construct: purchased Sino Biological 10082-HNAH
- Assay Protocol: MMP-2 inhibition assay (fluorogenic peptide substrate)
- Type: biochemical
- Assay Conditions: MMP-2; concentration 31.25 µM
Metric Name: remaining activity (%)
// keep it numeric: no unit symbol after the value

Check out these entries, answers already filled in.
Compound	Experimental Target	Metric Name	Value Reported
Cn1c(O)nc2cc(C(=O)NCCOCCOCCNC(=O)CNC(=O)NC34CC5CC(CC(C5)C3)C4)cnc21 [66+826 Linker 10]	MMP-2 (Homo sapiens, UniProt P08253)	remaining activity (%)	91.55
Cn1c(O)nc2cc(C(=O)NCCCCCCCCNC(=O)CNC(=O)NC34CC5CC(CC(C5)C3)C4)cnc21 [66+826 Linker 4]	MMP-2 (Homo sapiens, UniProt P08253)	remaining activity (%)	98.57

Known value: MMP-2 (Homo sapiens, UniProt P08253) remaining activity (%) of the compound Cc1cc(=O)[nH]c(-n2nc(C)c(CCC(=O)NCCNC(=O)c3cnc4c(c3)nc(O)n4C)c2C)n1 [693+826 Linker 1] equals 103.49

---

The following molecules are listed with their measured IC50 values.
- Experimental Target: MMP-9 (Homo sapiens, UniProt P14780)
- Construct: purchased Sino Biological 10327-HNAH
- Assay Protocol: MMP-9 inhibition assay (fluorogenic peptide substrate)
- Format: biochemical
- Assay Conditions: mean ± SE; n.d: not detected; Fig. 5e prints no unit, µM; read-out: IC50
- Description: The inhibition by the small molecule compounds against MMP-2/MMP-9 was measured using an assay probing the enzyme proteolytic activity on the substrate DNP-Pro-Leu-Gly-Met-Trp-Ser-Arg (Enzo Life Sciences, USA). All assays were performed in the assay buffer containing 50 mM Tris, 100 mM NaCl. […] The rate of hydrolysis was monitored by quantifying the emission at 360 nm (ex: 280 nm). The emission was measured with intervals of the 30 s for 30 min with Synergy H1 Plate Reader (Agilent, USA). […]
Give the value, in units of µM, as a plain number.

Consider `O=C(Cn1cnc2c(oc3ccccc32)c1=O)NCCCCCCCCNC(=O)c1cncc(O)c1` . Its measured IC50 is 233

Consider `O=C(O)c1cncc(O)c1` . Its measured IC50 is 271

Consider `Cc1cc(=O)[nH]c(-n2nc(C)c(CCC(=O)NCCCCCCCCNC(=O)c3cncc(O)c3)c2C)n1` . Its measured IC50 is 261

Consider `O=C(CNC(=O)NC12CC3CC(CC(C3)C1)C2)NCCOCCOCCNC(=O)c1cncc(O)c1` . Its measured IC50 is 521

Consider `O=C(Cn1cnc2c(oc3ccccc32)c1=O)NCCNC(=O)c1cncc(O)c1` . Its measured IC50 is 92.1

Consider `Cc1cc(=O)[nH]c(-n2nc(C)c(CCC(=O)NCCNC(=O)CC(=O)C=CCCCCNC(=O)c3cnc4c(c3)nc(O)n4C)c2C)n1` . Its measured IC50 is 58.9

Consider `Cn1c(O)nc2cc(C(=O)NCCOCCOCCNC(=O)Cn3cnc4c(oc5ccccc54)c3=O)cnc21` . Its measured IC50 is 283

---

- Experimental Target: MMP-9 (Homo sapiens, UniProt P14780)
- Construct: purchased Sino Biological 10327-HNAH
- Assay Protocol: MMP-9 inhibition assay (fluorogenic peptide substrate)
- Format: biochemical
- Set-up: scale not given here
- Assay Conditions: MMP-9; concentration 1.95 µM
- Method: The inhibition by the small molecule compounds against MMP-2/MMP-9 was measured using an assay probing the enzyme proteolytic activity on the substrate DNP-Pro-Leu-Gly-Met-Trp-Ser-Arg (Enzo Life Sciences, USA). All assays were performed in the assay buffer containing 50 mM Tris, 100 mM NaCl. […] The rate of hydrolysis was monitored by quantifying the emission at 360 nm (ex: 280 nm). The emission was measured with intervals of the 30 s for 30 min with Synergy H1 Plate Reader (Agilent, USA). […]
The following molecules are listed with their measured remaining enzyme activity (% of control) values.
// keep it numeric: no unit symbol after the value

Molecule Smiles	Experimental Target	remaining enzyme activity (% of control)
Cc1cc(=O)[nH]c(-n2nc(C)c(CCC(=O)NCCNC(=O)CC(=O)C=CCCCCNC(=O)c3cnc4c(c3)nc(O)n4C)c2C)n1	MMP-9 (Homo sapiens, UniProt P14780)	83.12
Cc1cc(=O)[nH]c(-n2nc(C)c(CCC(=O)NCCCCCCCCNC(=O)c3cncc(O)c3)c2C)n1	MMP-9 (Homo sapiens, UniProt P14780)	90.34

Consider `Cc1cc(=O)[nH]c(-n2nc(C)c(CCC(=O)NCCOCCOCCNC(=O)c3cnc4c(c3)nc(O)n4C)c2C)n1` . Its measured remaining enzyme activity (% of control) is 89.00

---

- Experimental Target: MMP-9 (Homo sapiens)
- Construct: purchased Sino Biological 10327-HNAH
- Assay Protocol: MMP-9 inhibition assay (fluorogenic peptide substrate)
- Assay type: biochemical
- Set-up: scale not given here
- Assay Conditions: MMP-9; concentration 0.12 µM
Metric Name: remaining enzyme activity (% of control)
// keep it numeric: no unit symbol after the value

Check out these entries, answers already filled in.
Molecule Smiles	remaining enzyme activity (% of control)
Cn1c(O)nc2cc(C(=O)NCC34CC5CC(CC(C5)C3)C4)cnc21	90.98
Cn1c(O)nc2cc(C(=O)NCCCC/C=C/C(=O)CC(=O)NCC34CC5CC(CC(C5)C3)C4)cnc21	93.60

Known value: MMP-9 (Homo sapiens) remaining enzyme activity (% of control) of the compound `Cn1c(O)nc2cc(C(=O)NCCCCCCCCNC(=O)CNC(=O)NC34CC5CC(CC(C5)C3)C4)cnc21` equals 93.59

---

- Experimental Target: MMP-9 (Homo sapiens)
- Construct: purchased Sino Biological 10327-HNAH
- Assay Protocol: MMP-9 inhibition assay (fluorogenic peptide substrate)
- Format: biochemical
- Parameters: scale not given here
- Assay Conditions: MMP-9; concentration 0.49 µM
The following compounds are listed with their measured remaining enzyme activity (% of control) values.
// keep it numeric: no unit symbol after the value

Molecule Smiles	remaining enzyme activity (% of control)
Cc1cc(=O)[nH]c(-n2nc(C)c(CCC(=O)NCCOCCOCCNC(=O)c3cnc4c(c3)nc(O)n4C)c2C)n1	87.11
Cc1cc(=O)[nH]c(-n2nc(C)c(CCC(=O)NCCNC(=O)CC(=O)C=CCCCCNC(=O)c3cnc4c(c3)nc(O)n4C)c2C)n1	80.27

Consider `Cn1c(O)nc2cc(C(=O)NCC34CC5CC(CC(C5)C3)C4)cnc21` . Its measured remaining enzyme activity (% of control) is 79.87

---

- Experimental Target: MMP-2 (Homo sapiens, UniProt P08253)
- Construct: purchased Sino Biological 10082-HNAH
- Sequence (P08253 110-660): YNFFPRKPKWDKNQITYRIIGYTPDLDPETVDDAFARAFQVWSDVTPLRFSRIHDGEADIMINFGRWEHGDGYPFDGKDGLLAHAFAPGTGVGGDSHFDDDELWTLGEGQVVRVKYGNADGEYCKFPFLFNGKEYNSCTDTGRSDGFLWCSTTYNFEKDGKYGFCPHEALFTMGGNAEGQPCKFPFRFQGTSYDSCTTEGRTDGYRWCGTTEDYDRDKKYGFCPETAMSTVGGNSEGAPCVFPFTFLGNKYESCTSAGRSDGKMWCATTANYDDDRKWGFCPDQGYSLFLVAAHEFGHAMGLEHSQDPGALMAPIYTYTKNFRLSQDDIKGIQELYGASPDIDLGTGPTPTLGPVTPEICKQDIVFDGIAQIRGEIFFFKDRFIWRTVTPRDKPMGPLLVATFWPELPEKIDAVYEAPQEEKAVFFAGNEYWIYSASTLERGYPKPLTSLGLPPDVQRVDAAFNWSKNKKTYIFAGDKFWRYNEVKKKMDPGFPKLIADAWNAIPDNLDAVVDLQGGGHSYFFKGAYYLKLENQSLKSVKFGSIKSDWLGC
- Assay Protocol: MMP-2 inhibition assay (fluorogenic peptide substrate)
- Format: biochemical
- Assay Conditions: Figure 5d; fragment combination joined by linker; n.d: not detected; read-out: MMP2 IC50
pIC50: −log10 of the molar value.
Label YES when pIC50 is at or above 4; anything below gets NO.

Here are 3 molecules together with their reported answers.
Molecule	Assigned Label
O=C(Cn1cnc2c(oc3ccccc32)c1=O)NCCCCCCCCNC(=O)c1cncc(O)c1 [182_828 4]	NO
Cc1cc(=O)[nH]c(-n2nc(C)c(CCC(=O)NCCNC(=O)CC(=O)/C=C/CCCCNC(=O)c3cncc(O)c3)c2C)n1 [693_828 12]	YES
Cc1cc(=O)[nH]c(-n2nc(C)c(CCC(=O)NCCNC(=O)CC(=O)/C=C/CCCCNC(=O)CCC(=O)NCc3c[nH]nn3)c2C)n1 [693_787 12]	YES

Exercise: Has O=C(CSCCNC(=O)Cn1cnc2c(oc3ccccc32)c1=O)NCc1c[nH]nn1 [182_787 24] a recorded pIC50 greater than or equal to 4?
Solution: YES

Exercise: Has Cc1cc(=O)[nH]c(-n2nc(C)c(CCC(=O)NCCSCC(=O)NCCNC(=O)c3cnc4c(c3)nc(O)n4C)c2C)n1 [693_826 24] a recorded pIC50 greater than or equal to 4?
Solution: NO

Exercise: Has O=C(Cn1cnc2c(oc3ccccc32)c1=O)NCCOCCOCCNC(=O)c1cncc(O)c1 [182_828 10] a recorded pIC50 greater than or equal to 4?
Solution: YES

Exercise: Has O=C(/C=C/CCCCNC(=O)c1cncc(O)c1)CC(=O)NCCNC(=O)Cn1cnc2c(oc3ccccc32)c1=O [182_828 12] a recorded pIC50 greater than or equal to 4?
Solution: YES
